System: OVCAR-8 ovarian
Assay: NCI tumour cell line growth inhibition, 48 h
measured.property: TGI

Query: Using the record for COC(=O)c1cc(-c2cccn2C)c2c(c1C(=O)OC)c1ccccc1n2C , report its TGI.
Result: > 100 µM

Query: State the recorded TGI for this entry: N.N.NCCCCCCN.O=C([O-])CC(=O)[O-].O=C([O-])CC(=O)[O-].[Pt+4].[Pt+4]
Result: > 100 µM

// next entry
Query: Please report the recorded TGI for c1ccc(P(CCP(CCP(c2ccccc2)c2ccccc2)c2ccccc2)CCP(c2ccccc2)c2ccccc2)cc1 (stereo not drawn) .
Result: > 10 µM

---

Recorded TGI values for a group of compounds are listed next.
Tested on: DU-145 prostate
Assay: NCI tumour cell line growth inhibition, 48 h

Illustrative cases are given below, each with its answer.
Query: Recorded TGI for O=C1CC(C(=O)N2CCCCC2)n2c(=O)n(-c3ccccc3)c(=O)n2C1 (stereo unspecified) , please?
Result: > 100 µM

Query: For CC(=O)N(CN1C(=O)CCC1C(=O)O)c1cccc(O)c1 (stereo unspecified) , what is its reported TGI?
Result: > 100 µM

Query: Return reported TGI; argument: CCOC(=O)Nc1nn(C)c(=NCc2ccccc2)s1
Result: > 100 µM

Query: So what's the measured TGI for this one? O=C(Cc1ccccc1)NNc1nc(NNC(=O)c2ccncc2)nc(Nc2cccc(Cl)c2)n1
Result: > 10 µM

Query: Looking for the measured TGI of CCSc1nc(=[N+]2CCCC2)ss1 , can you help?
Result: > 100 µM

More entries:
Query: Entry under review: COc1cc(Oc2nc3c(N)cc(C(F)(F)F)cc3nc2-c2ccccc2)cc(OC)c1OC . Reported TGI?
Result: > 100 µM
